assayProcedure: Cmax in rat at 1 mg/kg, iv
Assay type: ADME, organism-based
Set-up: dose 1 mg/kg, route intravenous
conditions: in vivo
Provide the reported Cmax of each item.
One number for each entry, in ng/mL.

structure | Cmax [ng/mL]
Cc1ccc(Oc2ccnc3cc(-c4cnn(C5CCNCC5)c4)ccc23)cc1 | 94.1
Oc1ccc(Oc2ccnc3cc(-c4cnn(C5CCNCC5)c4)ccc23)cc1 | 83.5

Now for the compound whose Cmax we want.
Inquiry: Fill in Cmax for record COc1ccc(Oc2ccnc3cc(-c4cnn(C5CCNCC5)c4)ccc23)cc1
Reply text: 48.9

###

Tested on: NCI-H2228
assayProcedure: Antiproliferative activity against human NCI-H2228 cells after 72 hrs by MTT assay
conditions: NCI-H2228, 72 h
outcomeMeasure: IC50 (µM)
One number for each entry, in µM.

Inquiry: State, in one line, measured IC50 of C[C@@H](Oc1cc(-c2cnn(C3CCNCC3)c2)cnc1N)c1c(Cl)ccc(F)c1Cl
Reply text: 2.5

Every entry's value here was drawn from ChEMBL document CHEMBL4024756.
